System: human adipocytes
method notes: Glycerol release assay (lipolysis) in differentiated human adipocytes
Assay type: cell-based
experimental context: peptide concentration 100 nM; human adipocytes in vitro
Non-standard residues stand in square brackets, D forms with d. No end group written: not given here. pGlu = O=C1CC[C@@H](C(=O)O)N1
I'd appreciate it if you could supply Percent Glycerol Release over Background values for the items below.
Numbers only; they are read as %.

Entry under review: QLNFTASWG-NH2 [Peptide 72] . Reported Percent Glycerol Release over Background?
18

Report Percent Glycerol Release over Background for pGlu-Leu-Asn-Phe-Thr-Ala-Ser-TrpNH2 ([pGlu]LNFTASW-NH2; SMILES CC(C)C[C@H](NC(=O)[C@@H]1CCC(=O)N1)C(=O)N[C@@H](CC(N)=O)C(=O)N[C@@H](Cc1ccccc1)C(=O)N[C@H](C(=O)N[C@@H](C)C(=O)N[C@@H](CO)C(=O)N[C@@H](Cc1c[nH]c2ccccc12)C(N)=O)[C@@H](C)O; listed as Homo sapiens) [Peptide 55] please.
1.9

Bench note: what Percent Glycerol Release over Background did QLNFTASW [Peptide 53] show?
3.8

// query Percent Glycerol Release over Background value for entry pGlu-Leu-Asn-Phe-Thr-Ala-Ser-Trp-Gly ([pGlu]LNFTASWG; listed as Homo sapiens) [Peptide 51]
3.8

From: patent US20050222040A1
